All figures here come from patent US20260055186A1.

Biological target: T1, human CD8 on human T cells (human, UniProt P01732 22-235)
T1 construct: whole, on cells; the antibodies were raised against human CD8 alpha; also called CD8 on human CD8+ T cells; hCD8
T1 sequence (P01732 22-235): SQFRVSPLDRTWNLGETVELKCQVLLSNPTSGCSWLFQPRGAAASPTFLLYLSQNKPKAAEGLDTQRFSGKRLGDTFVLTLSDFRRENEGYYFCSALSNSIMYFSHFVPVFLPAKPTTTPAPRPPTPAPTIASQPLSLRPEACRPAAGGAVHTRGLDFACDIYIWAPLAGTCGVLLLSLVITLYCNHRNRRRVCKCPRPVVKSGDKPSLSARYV
Test: flow cytometry on human CD8+ T cells, titration
Fold Change to Parental Apparent KD reference
Please respond with the number in fold and leave the unit unwritten.

INSERT INTO results (binder, result_value) VALUES
  ('humanized 02A01-VH4-VK1 (antibody, human IgG1, V domains shown, human IgG1 format; also called 02-VH4-VK1) VH: EVQLVQSGAEVKKPGATVKISCKASGYTFTDFTMHWVQQAPGKGLEWIGLVNPNNGGNIYAEKFQGRATLTVDTSTSTAYMELSSLRSEDTAVYYCGRVPLYTSHGMDYWGQGTLVTVSS VL: EIVLTQSPATLSVSPGERATISCRASESVDSYDINSMHWYQQKPGQPPRLLIYRASHLQSGIPARFSGSGSRTDFTLTISSVEPEDFATYYCQQSNEDPLTFGQGTKLEIK', 0.86);

Return reported Fold Change to Parental Apparent KD; argument: humanized 02A01-VH2-VK4 (antibody, human IgG1, V domains shown, human IgG1 format; also called 02-VH2-VK4) VH: EVQLVQSGAEVKKPGATLKISCKASGYTFTDFTMHWVQQAPGKGLEWIGLVNPNNGGNIYNQNFKGRATLTVDTSTSTAYMELSSLRSEDTSVYYCGRVPLYTSHGMDYWGQGTLVTVSS VL: EIVLTQSPATLSVSPGERATISCRASESVDSYDINSMHWYQQKPGQAPRLLIYDASNRATGIPARFSGSGSRTDFTLTISSVEPEDFATYYCQQSNEDPLTFGQGTKLEIK
0.89

Fold Change to Parental Apparent KD lookup needed for humanized 02A01-VH4-VK4 (antibody, human IgG1, V domains shown, human IgG1 format; also called 02-VH4-VK4) VH: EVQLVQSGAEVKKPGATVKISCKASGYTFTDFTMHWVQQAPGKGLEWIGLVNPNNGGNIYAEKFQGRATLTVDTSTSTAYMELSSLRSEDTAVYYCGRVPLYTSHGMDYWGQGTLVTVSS VL: EIVLTQSPATLSVSPGERATISCRASESVDSYDINSMHWYQQKPGQAPRLLIYDASNRATGIPARFSGSGSRTDFTLTISSVEPEDFATYYCQQSNEDPLTFGQGTKLEIK , thanks.
1.04
